Target: T1, human DR3 with the death domain deleted (ΔM339-P417 of SEQ ID NO:1), expressed on CHOK1SV cells (human, UniProt Q93038 25-338)
T1 construct: also called truncated DR3; hDR3 expressing CHO cells
T1 sequence: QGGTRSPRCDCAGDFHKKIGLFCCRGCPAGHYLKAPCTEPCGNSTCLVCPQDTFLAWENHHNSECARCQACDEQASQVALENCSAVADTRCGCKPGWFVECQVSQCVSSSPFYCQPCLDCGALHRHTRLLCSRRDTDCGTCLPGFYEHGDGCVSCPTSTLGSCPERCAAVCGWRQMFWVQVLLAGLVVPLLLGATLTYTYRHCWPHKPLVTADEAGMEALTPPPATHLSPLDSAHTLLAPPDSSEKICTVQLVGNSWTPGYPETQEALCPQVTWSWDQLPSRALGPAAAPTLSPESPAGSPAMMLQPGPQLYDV
Assay: flow cytometry competition: Fab vs TL1A on hDR3-expressing CHO cells

{"binder": "0124 (chimeric Fab of 28F26, human IgG4 constant domain, hinge Cys->Ser) (Fab, V domains shown, murine variable domains, human IgG4 constant domain (IgG4-Ser)) VH: EVKVVESGGGLVKPGGSLKLSCAASGFVFSSYDMSWVRQIPEKRLEWVAAISSGDYYTYYPDSVKGRFTISRDDARNTLYLQMSSLRSEDTALYYCARHRGGNYPQYAMDYWGQGTSVTVSS VL: DILLTQSPASFAVSLGQRATISCRASKSVSTSGYNYIHWYQQKPGQPPKLLIYLTSNLESGVPARFSGSGSGTDFTLNIHPVEEEDAATYYCQHSRELPFTFGSGTKLEIKR", "IC50": "1.3 nM"}
{"binder": "0143 (chimeric Fab of 44F434, human IgG4 constant domain, hinge Cys->Ser) (Fab, V domains shown, IgG4-Ser, chimeric) VH: EVQLVESGGDLVMPGGSLKLSCAASGFIFSSYGLSWIRQTPDKRLEWVATISGGDSYTYYPDSVKGRFTISSDNAKNTLYLQMTSLKSEDTAMYYCATQREIYYGTYYALDHWGQGTSVTVSS VL: DIQMTQTTSSLSASLGDRVTISCRASQDINNYLNWYQQKPDGTVKLLIYYTSRLQSGVPSRFSGSGSGTDYSLTISSLEQDDIATYFCQQGSPLPWTFGGGTKLEIKR", "IC50": "0.12 nM"}
{"binder": "0148 (chimeric Fab of 5F13, human IgG4 constant domain, hinge Cys->Ser) (Fab, V domains shown, IgG4-Ser, chimeric) VH: EVQLVESGGGLVKPGGSLKFSCAVSGFTFSSYVMSWVRQTPEKRLEWVAAISSDSTYTYYLDSVKGRFTISRDNAKNTLYLQMSSLRSEDTAMYYCARQTRSDAMDYWGQGTSVTVSS VL: DIVLTQSPASLAVSLGQRATISCRASESVDNYGNSFMHWYQQKPGQPPKLLIYRASNLESGIPARFSGSGSRTDFTLTINPVEADDVAIYYCQQSNEDPLTFGAGTKLELKR", "IC50": "9.22 nM"}
{"binder": "0130 (recombinant murine Fab of 45F36) (Fab, V domains shown, murine Fab; also called 00130) VH: EVQLVESGGGLVKPGGSLKLSCAASGFTFSSYAMSWVRQSPDKRLEWVAEISSGDTYTYYPDTVTGRFTISRDNAKKTLYLEMSGLRSEDTAMYYCARDREAYYGQQYVMDYWGQGTSVTVSS VL: DIVLTQSPASLAVSLGLSVTISCRASESIEYSGTSFLQWYQQKPGQPPRLLIYGSSTVESGVPARFSGSGSGTDFSLNIHPVEEDDSAMYFCQQSRRLPWTFGGGTKLEIKR", "IC50": "1.34 nM"}
{"binder": "0123 (chimeric Fab of 27F44, human IgG4 constant domain, hinge Cys->Ser) (Fab, V domains shown, murine variable domains, human IgG4 constant domain (IgG4-Ser)) VH: EVKLVESGGGLVKPGGSLKLSCSASGFAFSNYDMSWVRQTPEKRLEWVAAFSSDGYTFYPDSLKGRFTISRDNARNTLYLQMSSLGSEDTALYCCARHADYANYPVMDYWGQGTSVTVSS VL: DIVLAQSPASLLVSLGQRATISCRASKSVSTSGYSYMHWYQQKPGQPPKLLIYLASNLESGVPARFSGSGSGTDFTLNIHPVEEEDAATYYCQHSRELPLTFGAGTMLELKR", "IC50": "0.443 nM"}
